target: Full length human TBK1 (Homo sapiens (Human), UniProt Q9UHD2); assay: Inhibition of TBK1 Enzyme (Example A); format: biochemical; conditions: -log(IC50), IC50 molar; 3 nM TBK1, 25 μM ATP, 60 min RT
Sequence (Q9UHD2 whole entry): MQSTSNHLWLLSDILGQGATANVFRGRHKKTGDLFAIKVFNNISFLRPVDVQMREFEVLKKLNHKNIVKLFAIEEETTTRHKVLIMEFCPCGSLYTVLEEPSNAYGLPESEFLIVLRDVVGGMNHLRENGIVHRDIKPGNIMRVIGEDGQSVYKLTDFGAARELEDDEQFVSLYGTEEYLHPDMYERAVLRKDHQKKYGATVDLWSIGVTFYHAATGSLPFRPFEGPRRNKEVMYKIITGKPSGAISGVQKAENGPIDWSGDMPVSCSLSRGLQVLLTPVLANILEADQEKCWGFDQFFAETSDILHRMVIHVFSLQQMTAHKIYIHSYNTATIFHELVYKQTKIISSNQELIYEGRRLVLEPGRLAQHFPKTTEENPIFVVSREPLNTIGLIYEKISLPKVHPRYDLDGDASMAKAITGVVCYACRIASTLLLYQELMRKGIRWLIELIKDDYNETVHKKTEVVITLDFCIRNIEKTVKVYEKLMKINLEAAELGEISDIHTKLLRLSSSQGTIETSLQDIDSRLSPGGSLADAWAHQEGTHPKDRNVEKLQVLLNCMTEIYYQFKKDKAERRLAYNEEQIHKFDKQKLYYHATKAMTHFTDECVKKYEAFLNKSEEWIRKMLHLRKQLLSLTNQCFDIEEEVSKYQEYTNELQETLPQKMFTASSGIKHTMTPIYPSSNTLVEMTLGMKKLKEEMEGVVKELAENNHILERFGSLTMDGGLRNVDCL
Assign TBK1 Inhibition (pIC50) to each entry below.
In your answer, state the number alone without any accompanying words.

# get_value(readout='TBK1 Inhibition (pIC50)', item= C[C@H]1COCCN1C(=O)CNc1cc(-c2cnc(NC(=O)C3CC3)cn2)cnc1C#N [Example 84] ) 7.2

# get_value(readout='TBK1 Inhibition (pIC50)', item= C[C@H](Nc1cc(-c2cnc(NC(=O)C3CC3)cn2)cnc1C#N)C(=O)NCC(C)(F)F [Example 117] ) 7.0

# get_value(readout='TBK1 Inhibition (pIC50)', item= N#Cc1ncc(-c2cnc(NC(=O)C3CC3)cn2)cc1NCC(=O)N1CCC[C@@H]1C(F)F [Example 141] ) 8.3

# get_value(readout='TBK1 Inhibition (pIC50)', item= N#Cc1ncc(-c2cnc(NC(=O)C3CC3)cn2)cc1NCC(=O)N1CCC1C(F)(F)F (centres unmarked) [Example 94] ) 7.3

# get_value(readout='TBK1 Inhibition (pIC50)', item= C[C@H](Nc1cc(-c2cnc(NC(=O)C3CC3)cn2)cnc1C#N)C(=O)N1CCOC[C@@H]1C [Example 91] ) 7.7

# get_value(readout='TBK1 Inhibition (pIC50)', item= CC1CC1C(=O)Nc1cnc(-c2cnc(C#N)c(NCC(=O)N(C)C)c2)cn1 (centres unmarked) [Example 145] ) 7.1

# get_value(readout='TBK1 Inhibition (pIC50)', item= CN(C)C(=O)CNc1cc(-c2cnc(NC(=O)C3CC3)cn2)ccc1C#N [Example 123] ) 7.2

# get_value(readout='TBK1 Inhibition (pIC50)', item= CCN(C)C(=O)[C@H](C)Nc1cc(-c2cnc(NC(=O)C3CC3)cn2)ccc1C#N [Example 12] ) 8.0
